- system.under.test: T1, human serum albumin (human, UniProt P02768 25-609)
- T1 construct: mature; Bought purified serum albumin; also called HSA; Human albumin
- test: SPR, Fab captured; albumin taken as HSA;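 note: antibody captured on the sensor surface, albumin injected for a 3 min association phase, then dissociation followed, with signals corrected against a blank flow cell and buffer-only injections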
Overview of reported kon across a group of binders:
The figure you give is taken to be in M⁻¹ s⁻¹; do not add the unit.

| binder | result.unit | numeric.value |
| --- | --- | --- |
| CA645 gL20gH5 Fab (Fab, V domains shown, Fab: human gamma1 CH1, human kappa (Km3); Kabat numbering) VH: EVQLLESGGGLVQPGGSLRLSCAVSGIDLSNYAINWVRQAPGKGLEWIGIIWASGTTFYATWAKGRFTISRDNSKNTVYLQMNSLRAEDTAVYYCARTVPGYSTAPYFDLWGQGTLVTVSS VL: DIQMTQSPSSVSASVGDRVTITCQSSPSVWQNFLSWYQQKPGKAPKLLIYEASKLTSGVPSRFSGSGSGTDFTLTISSLQPEDFATYYCGGGYSSISDTTFGGGTKVEIK | M⁻¹ s⁻¹ | 55500 |
| CA645 gL4gH33 Fab (Fab, V domains shown, Fab: human gamma1 CH1, human kappa (Km3); Kabat numbering) VH: EVQLLESGGGLVQPGGSLRLSCAVSGIDLSNYAINWVRQAPGKGLEWIGIIWALGTTFYATWAKGRFTISRDNSKNTVYLQMNSLRAEDTAVYYCARTVPGYSTAPYFDLWGQGTLVTVSS VL: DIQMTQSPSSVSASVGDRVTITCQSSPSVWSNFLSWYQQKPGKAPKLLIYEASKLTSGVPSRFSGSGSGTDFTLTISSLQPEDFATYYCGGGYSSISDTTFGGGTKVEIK | M⁻¹ s⁻¹ | 38900 |
| CA645 gL4gH35 Fab (Fab, V domains shown, Fab: human gamma1 CH1, human kappa (Km3); Kabat numbering) VH: EVQLLESGGGLVQPGGSLRLSCAVSGIDLSNYAINWVRQAPGKGLEWIGIIWAEGTTFYATWAKGRFTISRDNSKNTVYLQMNSLRAEDTAVYYCARTVPGYSTAPYFDLWGQGTLVTVSS VL: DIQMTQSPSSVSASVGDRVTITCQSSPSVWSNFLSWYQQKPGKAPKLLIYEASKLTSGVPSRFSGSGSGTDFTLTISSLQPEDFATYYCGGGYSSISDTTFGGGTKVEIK | M⁻¹ s⁻¹ | 26500 |
| CA645 gL19gH5 Fab (Fab, V domains shown, Fab: human gamma1 CH1, human kappa (Km3); Kabat numbering) VH: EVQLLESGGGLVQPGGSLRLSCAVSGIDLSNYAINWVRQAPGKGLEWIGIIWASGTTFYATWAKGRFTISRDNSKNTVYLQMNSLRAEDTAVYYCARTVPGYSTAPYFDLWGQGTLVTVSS VL: DIQMTQSPSSVSASVGDRVTITCQSSPSVWDNFLSWYQQKPGKAPKLLIYEASKLTSGVPSRFSGSGSGTDFTLTISSLQPEDFATYYCGGGYSSISDTTFGGGTKVEIK | M⁻¹ s⁻¹ | 52000 |

For the binder CA645 gL4gH31 Fab (Fab, V domains shown, Fab: human gamma1 CH1, human kappa (Km3); Kabat numbering) VH: EVQLLESGGGLVQPGGSLRLSCAVSGIDLSNYAINWVRQAPGKGLEWIGIIWAVGTTFYATWAKGRFTISRDNSKNTVYLQMNSLRAEDTAVYYCARTVPGYSTAPYFDLWGQGTLVTVSS VL: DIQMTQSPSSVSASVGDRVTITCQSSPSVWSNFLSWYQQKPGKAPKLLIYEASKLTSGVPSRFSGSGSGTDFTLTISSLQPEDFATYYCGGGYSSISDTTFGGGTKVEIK , give its reported kon.
40000
